# System: OVCAR-8
# assay_info: Cytotoxicity against human OVCAR-8 cells assessed as cell viability at 10 uM incubated for 48 hrs by sulforhodamine B assay relative to control
# Assay type: functional
# protocol_conditions: read-out: Activity
Collected viability at 10 µM values appear next to each entry.
Report as a plain number; the unit % is understood.

These recorded examples may help you get a feel for the data.
given_smiles=O=C(NCCNc1nccc(-c2c(-c3cccc(F)c3)nc3sccn23)n1)c1ccccc1 assay_metric="viability at 10 µM" readout_value=46.8
given_smiles=O=S(=O)(NCCCNc1nccc(-c2c(-c3cccc(F)c3)nc3sccn23)n1)c1cccc2ccccc12 assay_metric="viability at 10 µM" readout_value=38.5

What the record says about `O=S(=O)(NCCCNc1nccc(-c2c(-c3cccc(F)c3)nc3sccn23)n1)c1cccc(F)c1` : viability at 10 µM is 18.4

What the record says about `O=C(NCCCNc1nccc(-c2c(-c3cccc(F)c3)nc3sccn23)n1)c1ccc(F)cc1` : viability at 10 µM is 68.4

What the record says about `O=S(=O)(NCCNc1nccc(-c2c(-c3cccc(F)c3)nc3sccn23)n1)c1ccc(F)cc1` : viability at 10 µM is 47.3

What the record says about `O=S(=O)(NCCNc1nccc(-c2c(-c3cccc(F)c3)nc3sccn23)n1)c1cccc(F)c1` : viability at 10 µM is 60.1

What the record says about `O=C(NCCNc1nccc(-c2c(-c3cccc(F)c3)nc3sccn23)n1)c1ccc(Cl)cc1` : viability at 10 µM is 55.1

What the record says about `O=S(=O)(NCCCNc1nccc(-c2c(-c3cccc(F)c3)nc3sccn23)n1)c1ccc(Cl)cc1` : viability at 10 µM is 50.2

What the record says about `O=S(=O)(NCCCNc1nccc(-c2c(-c3cccc(F)c3)nc3sccn23)n1)c1ccccc1` : viability at 10 µM is 43

----------
# Test system: M14
# assay_info: Cytotoxicity against human M14 cells assessed as cell viability at 10 uM incubated for 48 hrs by sulforhodamine B assay relative to control
# Format: functional
# protocol_conditions: read-out: Activity
Collected viability at 10 µM values appear next to each entry.
Report as a plain number; the unit % is understood.

These recorded examples may help you get a feel for the data.
given_smiles=O=C(NCCNc1nccc(-c2c(-c3cccc(F)c3)nc3sccn23)n1)C1CCCCC1 assay_metric="viability at 10 µM" unit_tag=% readout_value=73.6
given_smiles=O=S(=O)(NCCCNc1nccc(-c2c(-c3cccc(F)c3)nc3sccn23)n1)c1ccccc1 assay_metric="viability at 10 µM" unit_tag=% readout_value=50.5
given_smiles=O=S(=O)(NCCNc1nccc(-c2c(-c3cccc(F)c3)nc3sccn23)n1)c1ccc(Cl)cc1 assay_metric="viability at 10 µM" unit_tag=% readout_value=56.6
given_smiles=O=C(NCCNc1nccc(-c2c(-c3cccc(F)c3)nc3sccn23)n1)c1ccc(C(F)(F)F)cc1 assay_metric="viability at 10 µM" unit_tag=% readout_value=59.4
given_smiles=O=C(NCCNc1nccc(-c2c(-c3cccc(F)c3)nc3sccn23)n1)c1ccc(Cl)cc1 assay_metric="viability at 10 µM" unit_tag=% readout_value=38.8

What the record says about `O=C(NCCCNc1nccc(-c2c(-c3cccc(F)c3)nc3sccn23)n1)C1CCCCC1` : viability at 10 µM is 57.6

What the record says about `O=S(=O)(NCCCNc1nccc(-c2c(-c3cccc(F)c3)nc3sccn23)n1)c1ccc(Cl)cc1` : viability at 10 µM is 66.1

What the record says about `Cc1ccc(S(=O)(=O)NCCCNc2nccc(-c3c(-c4cccc(F)c4)nc4sccn34)n2)cc1` : viability at 10 µM is 80.7

What the record says about `O=C(NCCCNc1nccc(-c2c(-c3cccc(F)c3)nc3sccn23)n1)c1ccc(C(F)(F)F)cc1` : viability at 10 µM is 82.8

What the record says about `O=S(=O)(NCCCNc1nccc(-c2c(-c3cccc(F)c3)nc3sccn23)n1)c1ccc(O)cc1` : viability at 10 µM is 70.3
